target: human GnRH receptor (Homo sapiens); assay: IP-One HTRF assay with buserelin stimulation; conditions: CHO cells stably expressing human GnRH receptor; buserelin at EC80; read-out: Potency in IP-One HTRF assay with buserelin (at EC80) stimulation, given as IC50
Sequence (P30968 whole entry): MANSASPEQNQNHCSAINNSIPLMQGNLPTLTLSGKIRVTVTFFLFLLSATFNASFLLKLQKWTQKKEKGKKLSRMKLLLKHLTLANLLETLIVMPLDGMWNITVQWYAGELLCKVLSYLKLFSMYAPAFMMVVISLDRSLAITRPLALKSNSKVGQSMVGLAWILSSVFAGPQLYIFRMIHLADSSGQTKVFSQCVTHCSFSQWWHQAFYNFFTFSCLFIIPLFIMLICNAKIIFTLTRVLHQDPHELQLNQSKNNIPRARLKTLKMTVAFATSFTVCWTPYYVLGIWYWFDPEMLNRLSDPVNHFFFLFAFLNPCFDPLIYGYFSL
Hi there, I'd appreciate the recorded pIC50 for every entry that follows.
Bear in mind: pIC50 is minus log10 of a mol/L concentration; give just that figure.

Here O=C(NCc1ncc(C(F)(F)F)cc1F)c1ccc2c(c1)C1(CCS(=O)(=O)CC1)C(C1CC1)N2S(=O)(=O)c1ccc(OC(F)F)cc1 (racemic) was tested on human GnRH receptor (Homo sapiens), and its pIC50 came to 6.95

Here N#Cc1ccc(S(=O)(=O)N2c3ccc(C(=O)NCc4ncc(C(F)(F)F)cc4F)cc3C3(CCS(=O)(=O)CC3)C2C2CC2)cc1 (single isomer, unassigned) [Example 7.2] was tested on human GnRH receptor (Homo sapiens), and its pIC50 came to 7.24
